The measurements presented in this section are drawn from PubChem BioAssay AID1259426.

- target entity: HEK293 Galpha15/GCaMP6s without NPYLR7, calcium fluorescence
- test method notes: nonspecific activation in parental Galpha15/GCaMP6s cells – cell-based, HEK293 lacking NPYLR7, counter-screen for mosquito NPYLR7 agonist project, dose response (AID 1259426);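 also: potency for a rise in fluorescence over baseline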
The source made the active and inactive calls.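 The calls were made as follows: active = EC50 under a set limit in control cells lacking the mosquito receptor, marking a fluorescence artifact; inactive = the rest.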
Response enum: 1 = active, 0 = inactive

[
  {
    "compound": "CCC1CN(C(=O)c2cc(C(C)C)on2)CCC(=O)N1Cc1ccccc1 (stereo unspecified)",
    "class label": 0
  }
]

Returns: the outcome recorded for `CCN(CC)c1ccc(/C=C2\SC(=S)N(CC(=O)O)C2=O)c(O)c1` in this assay.
1

Returns: the outcome recorded for `NC(=S)N/N=c1\oc2cc(O)ccc2cc1-c1nc2ccccc2[nH]1` in this assay.
1

Returns: the outcome recorded for `Cc1cccc(C2=N/C(=C\c3cc4cc5c6c(c4oc3=O)CCCN6CCC5)C(=O)O2)c1` in this assay.
1

Returns: the outcome recorded for `C#CCN1C(=O)SC(=Cc2ccc(N3CCCCC3)o2)C1=O` in this assay.
1

Returns: the outcome recorded for COc1cc(/C=C2\SC(=S)N(C(C)C(=O)O)C2=O)ccc1O (stereo unspecified) in this assay.
1

Returns: the outcome recorded for `Cc1ccc(/C=C2/Oc3cc(O)ccc3C2=O)s1` in this assay.
1

Returns: the outcome recorded for `O=C(O)CCN1C(=O)/C(=C/c2ccc(O)cc2)SC1=S` in this assay.
1

Returns: the outcome recorded for `COc1ccc(Cl)cc1NC(=O)/C(C#N)=C/c1coc2ccc(C)cc2c1=O` in this assay.
0

Returns: the outcome recorded for `Nc1ccc2c3c(cccc13)C(=O)NC2=O` in this assay.
1

Returns: the outcome recorded for `CCN1CC(=Cc2cc(C)n(C3CC3)c2C)C(=O)C(=Cc2cc(C)n(C3CC3)c2C)C1` in this assay.
0

###

Entries and their EC50 values follow.
- target entity: HEK293 Galpha15/GCaMP6s without NPYLR7, calcium fluorescence
- test method notes: nonspecific activation in parental Galpha15/GCaMP6s cells – cell-based, HEK293 lacking NPYLR7, counter-screen for mosquito NPYLR7 agonist project, dose response (AID 1259426);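 also: potency for a rise in fluorescence over baseline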
Calls of active or inactive are those of the source.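 How the source made its calls: active means EC50 under a set limit in control cells lacking the mosquito receptor, marking a fluorescence artifact; inactive means the rest.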

Some compounds with recorded EC50:
[
  {
    "compound": "C=CCNc1ccc2c3c(cccc13)C(=O)N(c1ccccc1)C2=O",
    "EC50": "0.0583 µM"
  },
  {
    "compound": "Cc1cc2c(c(-c3ccc4c(cnn4C)c3)c1)OC(CN)C2 (stereo not given)",
    "EC50": "> 20 µM (inactive)"
  },
  {
    "compound": "O=[N+]([O-])c1c[n+]([O-])n(-c2cccc(Cl)c2)n1",
    "EC50": "> 20 µM (inactive)"
  },
  {
    "compound": "COc1cc(/C=C/c2nc3ccccc3o2)cc(Cl)c1O",
    "EC50": "1.7 µM"
  },
  {
    "compound": "O=C1/C(=C/c2cc3cc(Br)ccc3o2)Oc2c1ccc(O)c2CN1CCN(CCO)CC1",
    "EC50": "6.64 µM"
  },
  {
    "compound": "O=C(CC(c1cccc([N+](=O)[O-])c1)c1c[nH]c2ccccc12)NC1CC1 (stereo not given)",
    "EC50": "> 20 µM (inactive)"
  },
  {
    "compound": "O=C(O)c1ccccc1-c1c2cc(Br)c(=O)cc-2oc2[c]([Hg])c(O)c(Br)cc12",
    "EC50": "< 0.039 µM"
  },
  {
    "compound": "COc1ccccc1N=c1oc2cc(O)ccc2cc1-c1nc2ccccc2[nH]1",
    "EC50": "0.805 µM"
  },
  {
    "compound": "CS(=O)(=O)c1ccc(-c2cccc3c2OC(CNC(=O)c2cc[n+]([O-])cc2)C3)cc1 (stereo not given)",
    "EC50": "> 20 µM (inactive)"
  },
  {
    "compound": "N#Cc1cc2cc(Cl)cc(Cl)c2oc1=O",
    "EC50": "1.94 µM"
  }
]

Observed EC50 on HEK293 Galpha15/GCaMP6s without NPYLR7, calcium fluorescence for COc1ccc(/C=C2\Oc3c(ccc4c3CN(C3CCS(=O)(=O)C3)CO4)C2=O)cc1 (stereo not given) , please.
8.35 µM

Observed EC50 on HEK293 Galpha15/GCaMP6s without NPYLR7, calcium fluorescence for `COc1ccc2nc(C=Cc3cc(Br)c(O)c(OC)c3)sc2c1` , please.
> 20 µM (inactive)

Observed EC50 on HEK293 Galpha15/GCaMP6s without NPYLR7, calcium fluorescence for `COc1ccc(CCN2COc3ccc4c(c3C2)O/C(=C\c2cccnc2)C4=O)cc1` , please.
> 20 µM (inactive)

Observed EC50 on HEK293 Galpha15/GCaMP6s without NPYLR7, calcium fluorescence for `CN1C(=S)N(CCCN2CCOCC2)C(=O)/C1=C/c1ccc(N(C)C)cc1` , please.
> 20 µM (inactive)

Observed EC50 on HEK293 Galpha15/GCaMP6s without NPYLR7, calcium fluorescence for `O=C1c2cccc3c(NCCO)ccc(c23)C(=O)N1CCO` , please.
0.0846 µM

###

- target entity: HEK293 Galpha15/GCaMP6s without NPYLR7, calcium fluorescence
- test method notes: nonspecific activation in parental Galpha15/GCaMP6s cells – cell-based, HEK293 lacking NPYLR7, counter-screen for mosquito NPYLR7 agonist project, dose response (AID 1259426);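 also: potency for a rise in fluorescence over baseline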
Activity calls are given as the source filed them.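 How the source made its calls: active means EC50 under a set limit in control cells lacking the mosquito receptor, marking a fluorescence artifact; inactive means the rest.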
Response enum: t = active, f = inactive

Solved entries (count: 5):
[
  {
    "compound": "O=C1c2cccc3c(NCC(O)CCl)ccc(c23)C(=O)N1c1ccccc1 (stereo not drawn)",
    "class label": "t"
  },
  {
    "compound": "CC(C(=O)O)N1C(=O)/C(=C\\c2ccc(O)cc2)SC1=S (stereo not drawn)",
    "class label": "t"
  },
  {
    "compound": "O=c1nc2n3ccc(-c4ccncc4)cc3ncc-2s1",
    "class label": "t"
  },
  {
    "compound": "Cc1cc2nc3c(=O)[nH]c(=O)nc-3n(CC(O)C(O)C(O)CO)c2cc1C (stereo not drawn)",
    "class label": "t"
  },
  {
    "compound": "COc1ccc(N2C(=O)/C(=C\\c3ccc[nH]3)N(C)C2=S)c([N+](=O)[O-])c1",
    "class label": "f"
  }
]

Returns: the outcome recorded for `CCOC(=O)C1=C(C)NC(C)=C(C(=O)OCC)C1c1cc(Cl)ccc1OC(F)F` in this assay.
t

Returns: the outcome recorded for `COc1cc(C=C(C#N)S(=O)(=O)c2ccc(Cl)cc2)cc(Cl)c1O` in this assay.
f

Returns: the outcome recorded for `COc1cc(OC)c(OC)cc1/C=C1/SC(=S)N(CC(=O)O)C1=O` in this assay.
t

Returns: the outcome recorded for `CCN1C(=Cc2ccc3cc(C)ccc3[n+]2CC)Sc2ccccc21` in this assay.
t

Returns: the outcome recorded for `CCCn1c2c(c(=O)n(C)c1=O)C(=O)C(=Cc1ccc(N(C)C)cc1)N2` in this assay.
t

Returns: the outcome recorded for `COCCCN1COc2ccc3c(c2C1)O/C(=C\c1cc(OC)c(OC)c(OC)c1)C3=O` in this assay.
t

Returns: the outcome recorded for CCC(CO)[n+]1c(C)cc(C=C2Sc3ccccc3N2CC)cc1C (stereo not drawn) in this assay.
t

Returns: the outcome recorded for CC(C(=O)O)N1C(=O)/C(=C/c2ccc(N(C)C)cc2)SC1=S (stereo not drawn) in this assay.
t

Returns: the outcome recorded for `Cc1ccc(OCCNC(=O)N2CCN(S(=O)(=O)c3ccccc3Cl)CC2)c(C)c1` in this assay.
f

Returns: the outcome recorded for `CCOC(=O)c1ccc(N=c2oc3cc(O)ccc3cc2-c2nc3ccccc3[nH]2)cc1` in this assay.
t

Returns: the outcome recorded for `COc1ccc(NC[C@@H]2C=C(C)[C@H](Cc3nnc(C)o3)C[C@H]2C(C)C)cn1` in this assay.
t

Returns: the outcome recorded for CC1CC2(C)Oc3ccccc3C3OCC1(CO)C(C)C32 (stereo not drawn) in this assay.
f

###

- target entity: HEK293 Galpha15/GCaMP6s without NPYLR7, calcium fluorescence
- test method notes: nonspecific activation in parental Galpha15/GCaMP6s cells – cell-based, HEK293 lacking NPYLR7, counter-screen for mosquito NPYLR7 agonist project, dose response (AID 1259426);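 also: potency for a rise in fluorescence over baseline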
Calls of active or inactive are those of the source.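 Rule for the calls: active = EC50 under a set limit in control cells lacking the mosquito receptor, marking a fluorescence artifact; inactive = the rest.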
observation type: EC50

Some compounds with recorded EC50:
[
  {
    "compound": "O=C(c1nccc2ccccc12)N1CCN(CC2CCCC2)CC1",
    "observation type": "EC50",
    "result": "> 20 µM (inactive)"
  },
  {
    "compound": "CCC(C)n1cc(/C=C2/C(=O)NC(=O)N(c3ccc4c(c3)OCO4)C2=O)c2ccccc21 (stereo unspecified)",
    "observation type": "EC50",
    "result": "> 20 µM (inactive)"
  }
]

Form field: reported EC50 of `COCCCN(Cc1ccc(C(C)(C)C)cc1)Cc1cccn1Cc1cccc(C)c1`
> 20 µM (inactive)

Form field: reported EC50 of `CCOc1cccc(C=C2Oc3cc(O)ccc3C2=O)c1OC`
> 20 µM (inactive)

Form field: reported EC50 of CCc1ccc(/C=C2\Oc3c(ccc4c3CN(C3CCS(=O)(=O)C3)CO4)C2=O)cc1 (stereo unspecified)
10.6 µM

Form field: reported EC50 of `CCOc1cc(/C=C2/NC(=S)NC2=O)cc(Br)c1O`
6.37 µM

Form field: reported EC50 of O=C1Nc2ccccc2C1C=NN1CCOCC1 (stereo unspecified)
> 20 µM (inactive)

Form field: reported EC50 of `CCN1C(=Cc2cc(C)[n+](CCOC)c(C)c2)Sc2ccccc21`
17.6 µM
